Assay: Light fastness of printed samples (density loss after xenon lamp irradiation)
Format: physicochemical
Details: printed samples, in words
result_type: light fastness

| structure_notation | result_type | observed_result |
| --- | --- | --- |
| O=C(O)Cc1ccc(N=Nc2ccc(N=Nc3c(S(=O)(=O)O)cc4ccc(NCCS(=O)(=O)O)cc4c3O)c3cc(S(=O)(=O)O)ccc23)cc1 | light fastness | excellent light fastness |
| O=S(=O)(O)CCNc1ccc2cc(S(=O)(=O)O)c(N=Nc3ccc(N=Nc4ccc5c(S(=O)(=O)O)cc(S(=O)(=O)O)cc5c4)c4ccc(S(=O)(=O)O)cc34)c(O)c2c1 | light fastness | excellent light fastness |
| O=S(=O)(O)CCNc1ccc2cc(S(=O)(=O)O)c(N=Nc3ccc(N=Nc4ccc(CS(=O)(=O)O)cc4)c4ccc(S(=O)(=O)O)cc34)c(O)c2c1 | light fastness | excellent light fastness |

---

Experiment: Color co-ordinates (L*a*b*) of printed samples
Type: physicochemical
Conditions: Table 6
L*a*b*-value: L*: recorded values

Please review the following examples before continuing.
| compound | result_type | observed_result |
| --- | --- | --- |
| O=S(=O)(O)CCNc1ccc2cc(S(=O)(=O)O)c(N=Nc3ccc(N=Nc4ccc(S(=O)(=O)O)cc4)c4ccc(S(=O)(=O)O)cc34)c(O)c2c1 [Compound 5] | L*a*b*-value: L* | 7.3 |
| O=C(O)c1cc(N=Nc2ccc(N=Nc3c(S(=O)(=O)O)cc4ccc(NCCS(=O)(=O)O)cc4c3O)c3cc(S(=O)(=O)O)ccc23)cc(C(=O)O)c1 | L*a*b*-value: L* | 3.8 |
| O=C(O)c1cc(N=Nc2ccc(N=Nc3c(S(=O)(=O)O)cc4ccc(NCCS(=O)(=O)O)cc4c3O)c3ccc(S(=O)(=O)O)cc23)cc(C(=O)O)c1 | L*a*b*-value: L* | 5.7 |
| O=S(=O)(O)CCNc1ccc2cc(S(=O)(=O)O)c(N=Nc3ccc(N=Nc4ccc(CCO)cc4)c4ccc(S(=O)(=O)O)cc34)c(O)c2c1 | L*a*b*-value: L* | 18.3 |
| O=C(O)CCc1ccc(N=Nc2ccc(N=Nc3c(S(=O)(=O)O)cc4ccc(NCCS(=O)(=O)O)cc4c3O)c3cc(S(=O)(=O)O)ccc23)cc1 | L*a*b*-value: L* | 12.1 |
| O=S(=O)(O)CCNc1ccc2cc(S(=O)(=O)O)c(N=Nc3ccc(N=Nc4cc(Cl)c(S(=O)(=O)O)cc4Cl)c4ccc(S(=O)(=O)O)cc34)c(O)c2c1 | L*a*b*-value: L* | 3.5 |
| O=S(=O)(O)CCNc1ccc2cc(S(=O)(=O)O)c(N=Nc3ccc(N=Nc4cccc(S(=O)(=O)O)c4)c4cc(S(=O)(=O)O)ccc34)c(O)c2c1 | L*a*b*-value: L* | 7.5 |
| O=C(O)Cc1ccc(N=Nc2ccc(N=Nc3c(S(=O)(=O)O)cc4ccc(NCCS(=O)(=O)O)cc4c3O)c3cc(S(=O)(=O)O)ccc23)cc1 | L*a*b*-value: L* | 15.5 |
| O=C(O)c1ccc(N=Nc2ccc(N=Nc3c(S(=O)(=O)O)cc4ccc(NCCS(=O)(=O)O)cc4c3O)c3cc(S(=O)(=O)O)ccc23)cc1Cl | L*a*b*-value: L* | 4.7 |
| O=P(O)(O)Cc1ccc(N=Nc2ccc(N=Nc3c(S(=O)(=O)O)cc4ccc(NCCS(=O)(=O)O)cc4c3O)c3cc(S(=O)(=O)O)ccc23)cc1 | L*a*b*-value: L* | 2.0 |

Please look up its L*a*b*-value: L*: `O=S(=O)(O)CCNc1ccc2cc(S(=O)(=O)O)c(N=Nc3ccc(N=Nc4ccc(CS(=O)(=O)O)cc4)c4ccc(S(=O)(=O)O)cc34)c(O)c2c1`
17.3

---

Experiment: Absorption maximum in water
Format: physicochemical
Conditions: Table 6
result_type: HD max in water (nm)
Reply with just the number (in nm).

Please review the following examples before continuing.
| molecule | observed_result |
| --- | --- |
| O=C(O)c1cc(N=Nc2ccc(N=Nc3c(S(=O)(=O)O)cc4ccc(NCCS(=O)(=O)O)cc4c3O)c3ccc(S(=O)(=O)O)cc23)cc(C(=O)O)c1 [Compound 17] | 568 |
| O=S(=O)(O)CCNc1ccc2cc(S(=O)(=O)O)c(N=Nc3ccc(N=Nc4ccc(S(=O)(=O)O)cc4)c4ccc(S(=O)(=O)O)cc34)c(O)c2c1 [Compound 3] | 575 |

Please look up its HD max in water: O=S(=O)(O)CCNc1ccc2cc(S(=O)(=O)O)c(N=Nc3ccc(N=Nc4cc(Cl)c(S(=O)(=O)O)cc4Cl)c4ccc(S(=O)(=O)O)cc34)c(O)c2c1 [Compound 18]
553

Please look up its HD max in water: O=C(O)c1ccc(N=Nc2ccc(N=Nc3c(S(=O)(=O)O)cc4ccc(NCCS(=O)(=O)O)cc4c3O)c3cc(S(=O)(=O)O)ccc23)cc1Cl [Compound 15]
590

Please look up its HD max in water: O=S(=O)(O)CCNc1ccc2cc(S(=O)(=O)O)c(N=Nc3ccc(N=Nc4ccc(S(=O)(=O)O)cc4)c4ccc(S(=O)(=O)O)cc34)c(O)c2c1 [Compound 5]
576

Please look up its HD max in water: O=S(=O)(O)CCNc1ccc2cc(S(=O)(=O)O)c(N=Nc3ccc(N=Nc4ccc(CS(=O)(=O)O)cc4)c4cc(S(=O)(=O)O)ccc34)c(O)c2c1 [Compound 9]
575

Please look up its HD max in water: O=C(O)Cc1ccc(N=Nc2ccc(N=Nc3c(S(=O)(=O)O)cc4ccc(NCCS(=O)(=O)O)cc4c3O)c3cc(S(=O)(=O)O)ccc23)cc1 [Compound 7]
576

Please look up its HD max in water: O=C(O)c1cccc(N=Nc2ccc(N=Nc3c(S(=O)(=O)O)cc4ccc(NCCS(=O)(=O)O)cc4c3O)c3cc(S(=O)(=O)O)ccc23)c1 [Compound 2]
573

Please look up its HD max in water: O=S(=O)(O)CCNc1ccc2cc(S(=O)(=O)O)c(N=Nc3ccc(N=Nc4ccc(CS(=O)(=O)O)cc4)c4ccc(S(=O)(=O)O)cc34)c(O)c2c1 [Compound 8]
577

Please look up its HD max in water: O=S(=O)(O)CCNc1ccc2cc(S(=O)(=O)O)c(N=Nc3ccc(N=Nc4ccc5c(S(=O)(=O)O)cc(S(=O)(=O)O)cc5c4)c4ccc(S(=O)(=O)O)cc34)c(O)c2c1 [Compound 20]
582

Please look up its HD max in water: O=S(=O)(O)CCNc1ccc2cc(S(=O)(=O)O)c(N=Nc3ccc(N=Nc4cccc(S(=O)(=O)O)c4)c4cc(S(=O)(=O)O)ccc34)c(O)c2c1 [Compound 6]
573

Please look up its HD max in water: O=S(=O)(O)CCNc1ccc2cc(S(=O)(=O)O)c(N=Nc3ccc(N=Nc4cccc(CO)c4)c4ccc(S(=O)(=O)O)cc34)c(O)c2c1 [Compound 1]
582

Please look up its HD max in water: O=S(=O)(O)CCNc1ccc2cc(S(=O)(=O)O)c(N=Nc3ccc(N=Nc4ccc(CCO)cc4)c4ccc(S(=O)(=O)O)cc34)c(O)c2c1 [Compound 11]
577

Please look up its HD max in water: O=C(O)CCc1cccc(N=Nc2ccc(N=Nc3c(S(=O)(=O)O)cc4ccc(NCCS(=O)(=O)O)cc4c3O)c3cc(S(=O)(=O)O)ccc23)c1 [Compound 13]
575

---

Assay: Color co-ordinates (L*a*b*) of printed samples
Assay type: physicochemical
Settings: Table 6
result_type: L*a*b*-value: L*
Would you mind answering with just the numeric figure?

| molecule | result_type | observed_result |
| --- | --- | --- |
| O=C(O)c1cccc(N=Nc2ccc(N=Nc3c(S(=O)(=O)O)cc4ccc(NCCS(=O)(=O)O)cc4c3O)c3cc(S(=O)(=O)O)ccc23)c1 | L*a*b*-value: L* | 2.1 |
| O=S(=O)(O)CCNc1ccc2cc(S(=O)(=O)O)c(N=Nc3ccc(N=Nc4ccc(S(=O)(=O)O)cc4)c4cc(S(=O)(=O)O)ccc34)c(O)c2c1 | L*a*b*-value: L* | 8.9 |
| O=S(=O)(O)CCNc1ccc2cc(S(=O)(=O)O)c(N=Nc3ccc(N=Nc4ccc(CS(=O)(=O)O)cc4)c4cc(S(=O)(=O)O)ccc34)c(O)c2c1 | L*a*b*-value: L* | 22.9 |
| O=S(=O)(O)CCNc1ccc2cc(S(=O)(=O)O)c(N=Nc3ccc(N=Nc4ccc(S(=O)(=O)O)cc4)c4ccc(S(=O)(=O)O)cc34)c(O)c2c1 [Compound 3] | L*a*b*-value: L* | 4.3 |
| O=S(=O)(O)CCNc1ccc2cc(S(=O)(=O)O)c(N=Nc3ccc(N=Nc4ccc5c(S(=O)(=O)O)cc(S(=O)(=O)O)cc5c4)c4ccc(S(=O)(=O)O)cc34)c(O)c2c1 | L*a*b*-value: L* | 9.4 |

Kindly consider the entry below.
Please look up its L*a*b*-value: L*: O=C(O)CCC(NC(=O)c1ccc(N=Nc2ccc(N=Nc3c(S(=O)(=O)O)cc4ccc(NCCS(=O)(=O)O)cc4c3O)c3cc(S(=O)(=O)O)ccc23)cc1)C(=O)O (stereo not drawn)
19.5
